- Procedure Text: Phase 1/2a study, plasma pharmacokinetics of PF-07104091
- Format: in vivo, human
- Condition Info: human, plasma, po, 375 mg, Cycle 1 Day 1, single oral dose; 375 mg BID monotherapy; n = 1; read-out: t1/2 (converted)
Property Label: half-life

Would you mind telling me what half-life value was observed for `COCc1cc(C(=O)Nc2cc([C@H]3CC[C@@H](OC(=O)NC(C)C)C3)[nH]n2)n(C)n1` ?
1.5 h

###

- Procedure Text: Phase 1/2a study, plasma pharmacokinetics of PF-07104091
- Type: in vivo, human
- Condition Info: human, plasma, po, 75 mg, Cycle 1 Day 1, single oral dose; 75 mg BID (1B), with palbociclib and fulvestrant; arithmetic mean ± SD; read-out: t1/2 (converted)
Property Label: half-life (h)
One number for each entry, in h.

Name the recorded half-life for `COCc1cc(C(=O)Nc2cc([C@H]3CC[C@@H](OC(=O)NC(C)C)C3)[nH]n2)n(C)n1` .
1.9

###

- Procedure Text: Phase 1/2a study, plasma pharmacokinetics of PF-07104091
- Assay type: in vivo, human
- Condition Info: human, plasma, po, 75 mg, Cycle 1 Day 15, repeated BID oral; 75 mg BID (1B), with palbociclib and fulvestrant; arithmetic mean ± SD; read-out: t1/2 (converted)
Property Label: half-life

Please give the measured half-life for this compound: `COCc1cc(C(=O)Nc2cc([C@H]3CC[C@@H](OC(=O)NC(C)C)C3)[nH]n2)n(C)n1`
3.6 h

###

- Procedure Text: Phase 1/2a study, plasma pharmacokinetics of PF-07104091
- Assay type: in vivo, human
- Condition Info: human, plasma, po, 500 mg, Cycle 1 Day 15, repeated BID oral; 500 mg BID monotherapy; individual value, N = 1; read-out: Tmax
Property Label: Tmax (h)
Numbers only, in h.

What does the data say about its Tmax? Entry: COCc1cc(C(=O)Nc2cc([C@H]3CC[C@@H](OC(=O)NC(C)C)C3)[nH]n2)n(C)n1 [PF-07104091]
4

###

- Procedure Text: Phase 1/2a study, plasma pharmacokinetics of PF-07104091
- Type: in vivo, human
- Condition Info: human, plasma, po, 500 mg, Cycle 1 Day 15, repeated BID oral; 500 mg BID monotherapy; individual value, N = 1
Property Label: AUC(0-t)
Please don't drop the unit; write it after the number.

If you can, please state the reported AUC(0-t) value of `COCc1cc(C(=O)Nc2cc([C@H]3CC[C@@H](OC(=O)NC(C)C)C3)[nH]n2)n(C)n1` .
21500 ng·h/mL

###

- Procedure Text: Phase 1/2a study, plasma pharmacokinetics of PF-07104091
- Assay type: in vivo, human
- Condition Info: human, plasma, po, 75 mg, Cycle 1 Day 1, single oral dose; 75 mg BID monotherapy; geometric mean (CV %); read-out: Cmax
Property Label: Cmax (ng/mL)
Numbers only, in ng/mL.

Bench note: what Cmax did `COCc1cc(C(=O)Nc2cc([C@H]3CC[C@@H](OC(=O)NC(C)C)C3)[nH]n2)n(C)n1` show?
362

###

- Procedure Text: Phase 1/2a study, plasma pharmacokinetics of PF-07104091
- Type: in vivo, human
- Condition Info: human, plasma, po, 225 mg, Cycle 1 Day 15, repeated BID oral; 225 mg BID monotherapy; geometric mean (CV %); read-out: Cmax
Property Label: Cmax
Include the unit after the number when you answer.

Consider the molecule `COCc1cc(C(=O)Nc2cc([C@H]3CC[C@@H](OC(=O)NC(C)C)C3)[nH]n2)n(C)n1` and give its measured Cmax.
2350 ng/mL
